Data origin: patent US5798356A

Answer each item with its documented inhibition at 25 µM.
Tested on: human umbilical vein endothelial cells (HUVEC)
Experiment: inhibition of endothelial cell proliferation (HUVEC)
Assay type: cell-based
Settings: Homo sapiens, concentration 25 μM
Give bare numbers, in %.

The following compounds have reported results that may help.
{"compound": "COc1ccc2cc(C(C)C(=O)OCC3(C)Cc4c(C)c(O)c(C)c(C)c4O3)ccc2c1 (stereo not shown)", "study.target": "human umbilical vein endothelial cells (HUVEC)", "inhibition at 25 µM (%)": 60.5}
{"compound": "COc1ccc2cc(C(C)C(=O)OCCC3(C)CCc4c(C)c(O)c(C)c(C)c4O3)ccc2c1 (stereo not shown)", "study.target": "human umbilical vein endothelial cells (HUVEC)", "inhibition at 25 µM (%)": 55.2}

Value sought for every listed compound: inhibition at 25 µM.
1. Cc1c(C)c2c(c(C)c1O)CC(C)(CCN1CCN(C(c3ccc(F)cc3)c3ccc(F)cc3)CC1)O2 (stereo not shown)
2. Cc1c(C)c2c(c(C)c1OC(=O)CCC(=O)O)CCC(C)(CCCC(C)CCCC(C)CCCC(C)C)O2 (stereo not shown)

Result:
91
65.5
